Biological target: T1, human galanin (mature, processed form) (human, UniProt P22466 33-62, 125I-labelled in the filtration and immunoprecipitation assays; biotinylated in the IGEN assay and in the BIAcore assay of Table 4)
T1 construct: mature; the assays used the mature peptide; also called biotinylated galanin
T1 peptide (looked up): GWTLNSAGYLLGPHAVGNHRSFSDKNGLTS
Assay: BIAcore SPR; biotinylated galanin on a streptavidin chip, MAb flowed
Experimental: The galanin binding assay uses the ORIGEN technology (IGEN, Gaithersburg, Md.) and measures solution state binding. 0.75 μg/ml biotinylated galanin and 2 μg/ml ORI-TAG anti-mouse IgG were preincubated with serially diluted MAbs. 0.4 mg/ml streptavidin-coated Dyna beads were added, incubated, and read on an IGEN M8 Analyzer. […]
recorded-metric: pKd
Entry type: numeric. Quantity: pKd, the -log10 of concentration in molar units.

Answered examples (3):
murine monoclonal antibody 1A1 (antibody, V domains shown, the legend is followed) VH: EIQLQQSEAELVRPGALVKLSCKTSGFNIKDYYMHWVKQRPEQGLEWIGRIDPENDNSIYDPNFQGKASITADTSSNTAYLQLSSLTSEDTAVYYCVRGYVDWGQGTLVTVSA VL: DVLMTQTPLSLPVSLGDQASISCRSSQSIVHSDGDTYLEWYLQKPGQSPKLLIFKVSNRFSGVPDRFSGSGSGTDFTLKISRVEAEDLGVYYCFQGSHVPYTFGGGTKLEIKR    9.40
murine monoclonal antibody 4B3 (antibody, mouse IgG1, V domains shown, purified from ascites) VH: EIQLQQSEAELVKPGASVRLSCATSGFNIKDYYIHWVKQTTEQGLEWIGRIDPEDGETEYAPKFQGKATIAADTSSNTAYLLLNSLSSEDTAVYYCTRGYASWGQGTTLTVSS VL: DVLMTQTPLSLSVSLGDQASISCRSSQSFVHSDGNTYLEWYLQKSGQSPKLLIYKVSNRFSGVPDRFSGSGSGTDFTLKINRVEAEDLGVYYCFQGSHVPYTFGGGTKLEIKR    10.15
murine monoclonal antibody 1D7 (antibody, mouse IgG1, V domains shown, purified from ascites; also called hybridoma 1D7D1 (ATCC PTA-5650)) VH: EIQLQQSEAELVKPGASVRLSCATSGFNIKDYYIHWVKQTTEQGLEWIGRIDPEDGETEYAPKFQGKATIAADTSSNTAYLLLNSLSSEDTAVYYCTRGYASWGQGTTLTVSS VL: DVLMTQTPLSLSVSLGDQASISCRSSQSFVHSDGNTYLEWYLQKSGQSPKLLIYKVSNRFSGVPDRFSGSGSGTDFTLKINRVEAEDLGVYYCFQGSHVPYTFGGGTKLEIKR    10.05

Pending binder:
Record murine monoclonal antibody 1G12 (antibody, mouse IgG1, V domains shown, The legend prints 'murine 1G2' for the VH) VH: EVQLQQSGAELVKPGASVQLSCTASGFNIKDYYIHWVQQRTEQGLEWIGRIDPEDGEIEYAPKFQDKATITADTSSNTAYLQLSSLTSEDSAVYYCTRGYASWGQGTTLTVSS VL: DVLMTQTPLSLPVSLGDQASISCRSSQTFVHSDGNTYLEWYLQKPGQSPKLLIYKVSNRFSGVPDRFSGSGSGTDFTLKISRVEAEDLGVYYCFQGSHVPYTFGGGTKLEIKR , field pKd: 9.96
